- Tested on: N140
- protocol: qHTS profiling for inhibitors of Plasmodium falciparum proliferation (AID 504749); further: nearly all actives have a fitted effect of over 60% in size
- conditions-used: P. falciparum in erythrocytes, SYBR Green DNA, 72 h; series mostly up to 28.7 µM
- Description: NIH National Institute of Allergy and Infectious Diseases [NIAID] NIH Chemical Genomics Center [NCGC] […] Because mature erythrocytes lack DNA, only Plasmodium-derived DNA is detected. NCGC Assay Protocol Summary: The SYBR Green viability assay was adapted from a method described previously (Plouffe et al., 2008). […] The following morning, fluorescence intensity at 485(14) nm excitation and 535(25) nm emission wavelengths was measured on an EnVision (Perkin Elmer) plate reader. […]
Results filed as inconclusive are left out. Active and inactive are the calls of the source. The call rests on the fitted dose curve; in most records, active means well fitted inhibition curve with a large enough effect; inconclusive means small, poorly fitted or top-dose-only effect; inactive means flat fitted curve, though single readings scatter.
Possible outcomes: active, inactive

>  <compound>
C[N+](C)(C)CC(=O)[O-]

>  <measured-on>
N140

>  <assigned-category>
inactive

$$$$
>  <compound>
CCN1C[C@]2(COC)[C@H](O)C[C@H](OC)[C@]34C1C([C@H](OC)[C@H]23)[C@]1(OC(C)=O)C2[C@@H](OC(=O)c3ccccc3)C(O)(C[C@H]24)[C@@H](OC)[C@@H]1O

>  <measured-on>
N140

>  <assigned-category>
inactive

$$$$
>  <compound>
CC(C)[C@@]1(NC(=O)[C@H]2CC3c4cccc5[nH]cc(c45)C[C@H]3N(C)C2)O[C@@]2(O)C3CCCN3C(=O)[C@@H](Cc3ccccc3)N2C1=O (stereo partly drawn)

>  <measured-on>
N140

>  <assigned-category>
active

$$$$
